The values you see were collected from paper PMC11435625.

- Measurement protocol: IVIVE: steady-state concentration (Css), generic HTTK model
- Set-up: species or system human
- Condition description: Assuming 1 mg/kg/day dose rate; BW 70 kg
Observed property: Css (uM) (µM)
Give the value in µM but do not write µM after it.

Known results for molecules:
>>> readout_value("O=C(Cl)C(F)(F)C(F)(F)C(F)(F)C(F)(F)C(F)(F)C(F)(F)F [Perfluoroheptanoyl chloride (PFHpA-Cl)]")
473.43
>>> readout_value("O=C(O)C(F)(F)C(F)(F)C(F)(F)C(F)(F)C(F)(F)C(F)(F)C(F)(F)C(F)(F)C(F)(F)C(F)(F)C(F)(F)C(F)(F)F [Perfluorotridecanoic acid]")
8.39
>>> readout_value("O=C(O)C(F)(F)C(F)(F)F [Perfluoropropanoic acid (PFPrA)]")
4.74
>>> readout_value("O=C(O)C(F)(F)C(F)(F)C(F)(F)C(F)(F)C(F)(F)C(F)(F)F [Perfluoroheptanoic acid (PFHpA)]")
1657.68
>>> readout_value("CNS(=O)(=O)C(F)(F)C(F)(F)C(F)(F)C(F)(F)C(F)(F)C(F)(F)C(F)(F)C(F)(F)F")
1.13
>>> readout_value("O=C(O)C(F)(F)C(F)(F)C(F)(F)C(F)(F)C(F)(F)C(F)(F)C(F)(F)C(F)F [9-H-Perfluorononanoic acid (9H-PFNA)]")
601.28

Moving on to another molecule below.
INPUT: Given the molecule O=C(O)C(F)(F)C(F)(F)C(F)(F)C(F)(F)C(F)(F)C(F)(F)C(F)(F)C(F)(F)C(F)(F)C(F)F , write its reported Css (uM).
OUTPUT: 294.69

----------
- Measurement protocol: IVIVE: steady-state concentration (Css), generic HTTK model
- Parameters: species or system human
- Condition description: Assuming 1 mg/kg/day dose rate; BW 70 kg
So basically: is Css (uM) under 80 µM? Then condition met. Not under? Then condition not met.

INPUT: Item N.O=C(O)C(F)(F)C(F)(F)C(F)(F)C(F)(F)C(F)(F)C(F)(F)C(F)(F)F [Ammonium perfluorooctanoate (NH4PFOA)] : Css (uM) beneath 80 µM, strictly?
OUTPUT: condition not met

INPUT: Item O=C([O-])C(F)(F)C(F)(F)C(F)(F)C(F)(F)C(F)(F)C(F)(F)C(F)(F)F.[K+] [Potassium perfluorooctanoate (KPFOA)] : Css (uM) beneath 80 µM, strictly?
OUTPUT: condition not met

INPUT: Item O=S(=O)(O)CCC(F)(F)C(F)(F)C(F)(F)C(F)(F)C(F)(F)C(F)(F)C(F)(F)C(F)(F)F : Css (uM) beneath 80 µM, strictly?
OUTPUT: condition met

INPUT: Item O=S(=O)(O)C(F)(F)C(F)(F)C(F)(F)C(F)(F)C(F)(F)C(F)(F)C(F)(F)C(F)(F)F [Perfluorooctanesulfonate (PFOS-)] : Css (uM) beneath 80 µM, strictly?
OUTPUT: condition not met

INPUT: Item O=P(O)(O)CCC(F)(F)C(F)(F)C(F)(F)C(F)(F)C(F)(F)C(F)(F)F : Css (uM) beneath 80 µM, strictly?
OUTPUT: condition met

INPUT: Item O=C(O)C(F)(F)C(F)(F)C(F)(F)OC(F)(F)F : Css (uM) beneath 80 µM, strictly?
OUTPUT: condition met

INPUT: Item O=C(O)CCC(F)(F)C(F)(F)C(F)(F)C(F)(F)C(F)(F)F : Css (uM) beneath 80 µM, strictly?
OUTPUT: condition met

INPUT: Item O=S(=O)([O-])C(F)(F)C(F)(F)C(F)(F)C(F)(F)C(F)(F)C(F)(F)C(F)(F)C(F)(F)C(F)(F)C(F)(F)F.[Na+] [Sodium perfluorodecanesulfonate (NaPFDS)] : Css (uM) beneath 80 µM, strictly?
OUTPUT: condition met

----------
- Tested on: pooled primary human hepatocyte suspensions
- Measurement protocol: Hepatic clearance assay (substrate depletion, LC-MS)
- Condition description: unadjusted hepatic intrinsic clearance, pooled primary human hepatocyte suspensions; Table S4; in µL/min/10^6 cells
Documented Unadj Clint across a set of molecules

Known results for molecules:
>>> readout_value("O=S(=O)(O)C(F)(F)C(F)(F)C(F)(F)C(F)(F)F [PFBS, Perfluorobutanesulfonic acid]")
4.75
>>> readout_value("O=C(O)C(F)(F)C(F)(F)C(F)(F)F [Perfluorobutanoic acid]")
0.08
>>> readout_value("O=C(O)C(F)(F)C(F)(F)C(F)(F)OC(F)(C(F)(F)F)C(F)(F)F [PFPE-1, Perfluoro-4-isopropoxybutanoic acid]")
5.78
>>> readout_value("O=C(O)C=C(C(F)(F)F)C(F)(F)F")
1.82
>>> readout_value("O=S(=O)([O-])C(F)(F)C(F)(F)C(F)(F)C(F)(F)C(F)(F)C(F)(F)F.[K+] [Potassium perfluorohexanesulfonate]")
0.00

INPUT: Given the molecule O=C(O)C(F)(F)C(F)(F)C(F)(F)OC(F)(F)F [Perfluoro(4-methoxybutanoic) acid] , write its reported Unadj Clint.
OUTPUT: 1.50

INPUT: Given the molecule O=C(Cl)C(F)(F)C(F)(F)C(F)(F)C(F)(F)C(F)(F)C(F)(F)F [Perfluoroheptanoyl chloride] , write its reported Unadj Clint.
OUTPUT: 0.00

INPUT: Given the molecule O=C(O)C(F)(F)C(F)(F)C(F)(F)C(F)(F)C(F)(F)C(F)(F)C(F)(F)C(F)(F)F [PFNA, Perfluorononanoic acid] , write its reported Unadj Clint.
OUTPUT: 0.83

INPUT: Given the molecule O=C(O)C(F)(F)C(F)(F)C(F)(F)C(F)(F)C(F)(F)C(F)(F)F [PFHpA, Perfluoroheptanoic acid] , write its reported Unadj Clint.
OUTPUT: 3.12

----------
- Measurement protocol: Administered equivalent dose (AED) by reverse dosimetry
- Parameters: species or system human
- Condition description: from Css and AC50 POD by reverse dosimetry
Documented AED across a set of molecules
Give the value in mg/kg/day but do not write mg/kg/day after it.

>>> readout_value("O=S(=O)(O)C(F)(F)C(F)(F)C(F)(F)C(F)(F)C(F)(F)C(F)(F)C(F)(F)F")
0.02

INPUT: Given the molecule O=C(O)C(F)(F)C(F)(F)C(F)(F)C(F)(F)C(F)(F)C(F)(F)C(F)(F)C(F)F , write its reported AED.
OUTPUT: 0.004

INPUT: Given the molecule O=C(O)C(F)(F)C(F)(F)C(F)(F)C(F)(F)C(F)(F)C(F)(F)C(F)(F)F , write its reported AED.
OUTPUT: 0.01

INPUT: Given the molecule O=C(O)C(F)(F)C(F)(F)C(F)(F)C(F)(F)C(F)(F)C(F)(F)C(F)(F)C(F)(F)F , write its reported AED.
OUTPUT: 0.05

----------
- Measurement protocol: Hepatic clearance assay (substrate depletion, LC-MS)
- Condition description: both, human, cryopreserved pooled primary human hepatocyte suspensions
Observed property: hepatocyte CLint at 1 μM (µL/min/1e6 cells)
Give the value in µL/min/1e6 cells but do not write µL/min/1e6 cells after it.

INPUT: Given the molecule O=S(=O)(O)CCC(F)(F)C(F)(F)C(F)(F)C(F)(F)C(F)(F)C(F)(F)C(F)(F)C(F)(F)F , write its reported hepatocyte CLint at 1 μM.
OUTPUT: 1.53

----------
Documented in vitro CLint exp assay across a set of compounds
- System: pooled primary human hepatocyte suspensions
- Measurement protocol: Hepatic clearance assay (substrate depletion, LC-MS)
- Condition description: pooled primary human hepatocyte suspensions; in µL/min/10^6 cells
Please state the value as a number alone, without comment.

Known results for compounds:
>>> readout_value("O=C(O)C=CC(F)(C(F)(F)F)C(F)(F)F")
0
>>> readout_value("O=S(=O)(OCC(F)(F)F)C(F)(F)C(F)(F)C(F)(F)C(F)(F)F")
0.00
>>> readout_value("O=C(O)C(F)(F)C(F)(F)F")
0
>>> readout_value("O=S(=O)([O-])C(F)(F)C(F)(F)C(F)(F)C(F)(F)C(F)(F)C(F)(F)F.[K+]")
0

Moving on to another compound below.
INPUT: Give reported in vitro CLint exp assay for O=S(=O)(Cl)C(F)(F)C(F)(F)C(F)(F)C(F)(F)C(F)(F)C(F)(F)C(F)(F)C(F)(F)F (pooled primary human hepatocyte suspensions)
OUTPUT: 0.00

----------
Documented hepatocyte CLint at 1 μM across a set of compounds
- Measurement protocol: Hepatic clearance assay (substrate depletion, LC-MS)
- Condition description: both, human, hepatocytes
Give the value in µL/min/1e6 cells but do not write µL/min/1e6 cells after it.

>>> readout_value("O=C(O)C(F)(F)C(F)(F)C(F)(F)OC(F)(C(F)(F)F)C(F)(F)F")
5.78
>>> readout_value("O=S(=O)(O)C(F)(F)C(F)(F)C(F)(F)C(F)(F)F")
4.75

INPUT: Given the compound O=C(O)CCC(F)(F)C(F)(F)C(F)(F)C(F)(F)C(F)(F)F , write its reported hepatocyte CLint at 1 μM.
OUTPUT: 11.8

INPUT: Given the compound O=C(O)CCC(F)(F)C(F)(F)C(F)(F)C(F)(F)C(F)(F)C(F)(F)C(F)(F)F , write its reported hepatocyte CLint at 1 μM.
OUTPUT: 15.7

INPUT: Given the compound O=S(=O)(O)CCC(F)(F)C(F)(F)C(F)(F)C(F)(F)C(F)(F)C(F)(F)F , write its reported hepatocyte CLint at 1 μM.
OUTPUT: 1.4

INPUT: Given the compound O=S(=O)(O)CCC(F)(F)C(F)(F)C(F)(F)C(F)(F)F , write its reported hepatocyte CLint at 1 μM.
OUTPUT: 4.28
